Kd values recorded for Microtubule-associated protein 1 light chain 3 alpha (Homo sapiens, UniProt Q9H492)
measurement_type: Kd (µM)

CC(C)CCc1cccc(C(=O)Nc2c(O)c3ccc(O)cc3oc2=O)c1
17.2
CC(C)CCc1cc(C(=O)Nc2c(O)c3ccc(O)cc3oc2=O)ccc1O
27.5

[a] CO[C@@H]1[C@@H](OC(N)=O)[C@@H](O)[C@H](Oc2ccc3c(O)c(NC(=O)c4ccc(O)c(CCC(C)C)c4)c(=O)oc3c2C)OC1(C)C
[b] Cc1c(O)ccc2c(O)c(NC(=O)c3ccc(O)c(CCC(C)C)c3)c(=O)oc12
[ask] Lab note: check whether a or b shows the higher recorded Kd. Bench note: the answer is the label of the chosen record.
[reply] b
(b: 14.2 µM, a: 2.8 µM)

====

tgt: Microtubule-associated protein 1 light chain 3 alpha (Homo sapiens)
procedure_summary: Displacement of sGFP-p62-LIR peptide from human N-terminal SNAP-fused LC3A by time-resolved FRET assay
applied_conditions: read-out: Ki
measurement_type: Ki (µM)

CC(C)CCc1cccc(C(=O)Nc2c(O)c3ccc(-c4ccccc4-c4ccccc4)cc3oc2=O)c1
105
CS(=O)(=O)Nc1cccc(C(=O)Nc2c(O)c3ccc(O)cc3oc2=O)c1
130
CCCS(=O)(=O)Nc1cccc(C(=O)Nc2c(O)c3ccc(O)cc3oc2=O)c1
144
